Test system: Pasteurella multocida
runDescription: In vitro antibacterial activity under anaerobic conditions against Pasteurella multocida strain 59A004
Assay type: functional
Exercise: state measured MIC for each of the compounds provided.
Express the result in µg/mL but write the number alone.

Entry `CC(=O)c1c(CS(C)(=O)=O)nc2ccccc2[n+]1[O-]` ; assay system Pasteurella multocida; MIC recorded at 0.78

The value of MIC recorded for `CCS(=O)(=O)Cc1nc2ccccc2[n+]([O-])c1C(=O)NC` when tested on Pasteurella multocida reads 6.25

Entry CC(=O)c1c(C[S+]([O-])CCO)nc2ccccc2[n+]1[O-] (stereo unspecified) ; assay system Pasteurella multocida; MIC recorded at 3.12

With Pasteurella multocida as the test system, `CC(=O)c1c(CS(=O)(=O)CCO)nc2ccccc2[n+]1[O-]` showed MIC of 1.56

Record `CNC(=O)c1c(CS(=O)(=O)CCO)nc2ccccc2[n+]1[O-]` has Pasteurella multocida MIC equal to 3.12

The measured MIC that `CCCS(=O)(=O)Cc1nc2ccccc2[n+]([O-])c1C(C)=O` showed for Pasteurella multocida is 3.12

###

Test system: Salmonella enterica
runDescription: In vitro antibacterial activity under anaerobic conditions against Salmonella choleraesuis strain 58B242
Format: functional
measuredMetric: MIC (µg/mL)
Just the number please, in µg/mL, no unit attached.

In plain terms, CC(=O)c1c(C[S+]([O-])CCO)nc2ccccc2[n+]1[O-] (stereo not given) has a documented MIC of 6.25

Recorded MIC (molecule `CS(=O)(=O)Cc1nc2ccccc2[n+]([O-])c1C(N)=O` ): 3.12

Measured MIC, CC(=O)c1c(C[S+](C)[O-])nc2ccccc2[n+]1[O-] (stereo not given) : 25

Item: `CCS(=O)(=O)Cc1nc2ccccc2[n+]([O-])c1C(=O)NC` | MIC: 25

MIC reported for this molecule `COC(=O)c1c(CS(=O)(=O)CCO)nc2ccccc2[n+]1[O-]` : 25

// MIC lookup, molecule = `CCS(=O)(=O)Cc1nc2ccccc2[n+]([O-])c1C(C)=O` , result: 50

For this molecule ( `CC(=O)c1c(CS(C)(=O)=O)nc2ccccc2[n+]1[O-]` ), measured MIC is 12.5

COC(=O)N/N=C/c1c[n+]([O-])c2ccccc2[n+]1[O-] [CARBADOX] has a reported MIC of 0.19

molecule `CNC(=O)c1c(CS(=O)(=O)CCO)nc2ccccc2[n+]1[O-]` , MIC observed: 25

Short answer for `CC(=O)c1c(CS(=O)(=O)CCO)nc2ccccc2[n+]1[O-]` : MIC was 50

Note to self: MIC recorded for `COC(=O)c1c(CS(C)(=O)=O)nc2ccccc2[n+]1[O-]` was 6.25

Note to self: MIC recorded for `CNC(=O)c1c(CS(C)(=O)=O)nc2ccccc2[n+]1[O-]` was 6.25

According to the records, this molecule `CS(=O)(=O)Cc1nc2ccccc2[n+]([O-])c1S(C)(=O)=O` displays MIC of 25

Per the records, this molecule ( `CCCS(=O)(=O)Cc1nc2ccccc2[n+]([O-])c1C(C)=O` ) has MIC equal to 200

###

Tested on: Pasteurella multocida
runDescription: In vitro antibacterial activity under anaerobic conditions against Pasteurella multocida strain 59A004
Format: functional
Please provide measured MIC for the entries that follow.
Kindly provide the numeric value in µg/mL only, without the unit symbol.

Lab book: MIC of COC(=O)N/N=C/c1c[n+]([O-])c2ccccc2[n+]1[O-] [CARBADOX] noted as 0.78

Entry `COC(=O)c1c(CS(C)(=O)=O)nc2ccccc2[n+]1[O-]` — recorded MIC = 0.78

Per the record, `COC(=O)c1c(CS(=O)(=O)CCO)nc2ccccc2[n+]1[O-]` has MIC of 1.56

// MIC value for `CS(=O)(=O)Cc1nc2ccccc2[n+]([O-])c1S(C)(=O)=O` : 3.12

Noted for `CNC(=O)c1c(CS(C)(=O)=O)nc2ccccc2[n+]1[O-]` : its MIC reads 0.78

// sample `CS(=O)(=O)Cc1nc2ccccc2[n+]([O-])c1C(N)=O` , its MIC was 1.56

Quick note, MIC for CC(=O)c1c(C[S+](C)[O-])nc2ccccc2[n+]1[O-] (centres undefined) landed at 3.12

Documented MIC of `CCS(=O)(=O)Cc1nc2ccccc2[n+]([O-])c1C(C)=O` : 6.25

The recorded MIC for entry `CS(=O)(=O)Cc1nc2ccccc2[n+]([O-])c1C#N` equals 200
